Reference source for all entries: the supplement of paper PMC9170038

Here the recorded apparent KD of K4 kissing-loop reporter is given for each entry.
Test system: K4 kissing-loop RNA reporter;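 also: bound reporter read as fluorescence of individual clusters on recovered sequencing chips by microscopy, with normalized cluster intensities fitted with a binding model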
Assay: apparent KD of K4 kissing-loop reporter; higher = weaker reporter binding
Settings: Eterna round: R107; input ligand: tryptophan 2.4 mM
measurementKind: apparent KD of K4 kissing-loop reporter (nM)

[
  {
    "residueSequence": "AGGCACGAGCAAGGAUAUUGAGUAGAGUGAUGUUCUGCCUGGGUUGGCUCGCAAGAGCCUUCUCAGCGAGAAGGUGCUCGUGCCU [#2 Same State - FMN A Attempt #25 (HarryS)]",
    "recordedNumber": 594
  },
  {
    "residueSequence": "UGAUAGGACAGAAGGAGCGGAAGUGAUGUUUCCAAAAGAUAUGGUCGACAAAGUCGACUUUUCCAGGUAGGUCGCUGUCCUAUCU [KL-XARG-B18]",
    "recordedNumber": 66.6
  },
  {
    "residueSequence": "CCAAACAGUUACGAUACCAGUCUAAUAUAUUUGAUCAAAACCCUCGCCGAGUGAUGUUCGGACCCUUGGCAGCGUCUGGGACAGG [zzbtmullin]",
    "recordedNumber": 371
  },
  {
    "residueSequence": "GUACCUUGGAAACAAGGACAGCUAACCGAAGGAGCGCGUGAAAACGCAGGUAGGUCGCGGUAGCGGAGUGAUGUUCCGCGAGAGC [Same State Arginine A GF 19]",
    "recordedNumber": 108
  },
  {
    "residueSequence": "GGAUAGGACAGAGGAUAUGGUAGUGAUGUUACCAAACUGGUUACUCUUGUCAGAAAACUGGCAUUUCCAGAAGGCUGUCCUAUCG [KL-XFMN-B11]",
    "recordedNumber": 104
  },
  {
    "residueSequence": "AGUUAUGUUGCGGCCGCCACUGCGCGAGUGAUGUUCGUGGCAUAUAUAAUGUUAUAUAUGCAUCACAGGACCGGGCGGCAUAGCG [Same State - Tryptophan B]",
    "recordedNumber": 152
  },
  {
    "residueSequence": "UGUCAUUGGUCGGCCGCCACUAAAAUAAAAGAGUGAUGUUCUUAAAAGACGGACAAAGUCUGUCAUAGGACCGGGACCGAUGACU [TrypBS 23 #SwitchBubble #StaticStem]",
    "recordedNumber": 202
  },
  {
    "residueSequence": "GCGCGGGAGUGAUGUUCCAAGUGGUGUUAACGAGGACCGGUACGGCCGCCACUCGAUACGGCCGGGCCGUAGGAUAAACUGGCGC [Same State - Tryptophan A (Freestyle 14)]",
    "recordedNumber": 408
  },
  {
    "residueSequence": "UAUUAAUUGUCAGGAUAUCGAAAUCGAGUGAUGUUCGUAUAUCGACGAUAGUCGAUAUUAUUUAUACGAGAAGGGACAUUAUUUA [JR_SSFMNB_Sub003]",
    "recordedNumber": 386
  },
  {
    "residueSequence": "AUUUAGACGAGUGAUGUUCGUGUUAUUACAGAGGAUAUGCGUAAAAGCAGAAGGCUGUAUUUAUAUUUGUUAUGUAAUUUUAAAA [JR_ExcFMNA_Sub006]",
    "recordedNumber": 63.9
  },
  {
    "residueSequence": "UGUCAUUGGUCGGCCGCCACUAGGACCGGGUUUUACCUAGUGAUGUUAGUAUGAACGGCCGCCACUAGGACCGGGACCGAUGACU [KL-SSTryp-B25 #DoubleAptamer]",
    "recordedNumber": 113
  }
]
